FYI, the data here is from ChEMBL document CHEMBL1147439.

- Target system: Adenosine receptor A2a (Homo sapiens)
- Sequence (P29274 whole entry): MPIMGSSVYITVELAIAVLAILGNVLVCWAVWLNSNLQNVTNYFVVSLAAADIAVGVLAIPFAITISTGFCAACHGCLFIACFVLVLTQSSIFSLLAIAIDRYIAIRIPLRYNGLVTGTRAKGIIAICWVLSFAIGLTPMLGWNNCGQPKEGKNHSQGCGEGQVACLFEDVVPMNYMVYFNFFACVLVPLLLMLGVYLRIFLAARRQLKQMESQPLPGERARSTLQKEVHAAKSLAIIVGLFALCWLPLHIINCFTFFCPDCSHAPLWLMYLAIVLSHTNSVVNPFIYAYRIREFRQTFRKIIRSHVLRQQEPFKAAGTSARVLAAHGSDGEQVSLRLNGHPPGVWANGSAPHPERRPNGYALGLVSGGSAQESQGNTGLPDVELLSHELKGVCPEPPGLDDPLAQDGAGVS
- Experiment summary: Binding affinity for human adenosine A2A receptor by displacement of [3H]SCH-58,261; inactive
Measured attribute: Ki

So for `Cc1ccc(O)c(C2=NN(C(=S)Cc3ccccc3)CC2)c1` , the logged Ki turned out to be > 5.2 µM

----------
- Experiment summary: pKa value was determined
- Format: physicochemical
Measured attribute: pKa
Lab note: record just the number, no unit beside it.

COc1ccc(O)c(/C=N/NC(=O)Cc2ccccc2)c1 | 2.9
COc1ccc(O)c(/C=N/NS(=O)(=O)Cc2ccccc2)c1 | 6.5

So for `COc1ccc(O)c(/C=N/N=C(\S)Cc2ccccc2)c1` , the logged pKa turned out to be 6.6

----------
- Target system: Adenosine receptor A2a (Homo sapiens)
- Experiment summary: Binding affinity towards human recombinant adenosine A2A receptor by displacement of [3H]SCH-58261 radioligand.
Measured attribute: pKi
Expect pKi as a plain number equal to -log10 of the molar concentration.

// known answers, use as guide
S/C(Cc1ccccc1)=N\N=C\c1ccccn1 | 7.00
COc1ccc(/C=N/N=C(\S)Cc2ccccc2)c(O)c1 | 7.00
Cn1nc(-c2ccc(N=[N+]=[N-])cc2)nc1-c1cccc(CN2CC=CC2)c1 | 6.40
S/C(Cc1ccccc1)=N\N=C\c1ccc2ccccc2n1 | 5.92
COc1cccc(-c2n[nH]c(Cc3ccc4ccccc4c3)n2)c1 | 7.00

So for `S/C(Cc1ccccc1)=N\N=C\c1cnc2ccccc2c1` , the logged pKi turned out to be 5.70

So for `COc1cccc(-c2nnc(Cc3ccc(Cl)c(Cl)c3)[nH]2)c1OC` , the logged pKi turned out to be 7.05

----------
Adenosine receptor A2a (Rattus norvegicus, UniProt P30543) measurements of Ki, listed per entry.
Sequence (P30543 whole entry): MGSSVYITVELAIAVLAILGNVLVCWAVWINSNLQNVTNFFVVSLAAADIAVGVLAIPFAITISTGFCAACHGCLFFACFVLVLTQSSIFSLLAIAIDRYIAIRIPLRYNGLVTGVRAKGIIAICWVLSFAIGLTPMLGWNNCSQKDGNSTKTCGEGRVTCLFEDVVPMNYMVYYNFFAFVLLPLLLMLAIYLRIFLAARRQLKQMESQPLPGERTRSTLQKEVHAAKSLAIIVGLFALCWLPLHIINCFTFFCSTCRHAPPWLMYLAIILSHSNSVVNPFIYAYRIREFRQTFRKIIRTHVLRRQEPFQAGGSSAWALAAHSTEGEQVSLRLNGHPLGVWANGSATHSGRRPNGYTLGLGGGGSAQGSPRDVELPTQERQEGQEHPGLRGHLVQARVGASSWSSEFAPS
Provide the reading as a plain figure in nM.

// known answers, use as guide
COc1cccc(-c2n[nH]c(Cc3cccc(F)c3F)n2)c1 | 40
COc1cccc(-c2n[nH]c(Cc3ccc4ccccc4c3)n2)c1 | 400
COc1cccc(-c2nc(Cc3ccc(C)c(C)c3)n[nH]2)c1 | 90

So for `COc1cccc(-c2n[nH]c(Cc3cccc(Br)c3)n2)c1` , the logged Ki turned out to be 40

----------
- Target system: Adenosine receptor A1 (Homo sapiens, UniProt P30542)
- Sequence (P30542 whole entry): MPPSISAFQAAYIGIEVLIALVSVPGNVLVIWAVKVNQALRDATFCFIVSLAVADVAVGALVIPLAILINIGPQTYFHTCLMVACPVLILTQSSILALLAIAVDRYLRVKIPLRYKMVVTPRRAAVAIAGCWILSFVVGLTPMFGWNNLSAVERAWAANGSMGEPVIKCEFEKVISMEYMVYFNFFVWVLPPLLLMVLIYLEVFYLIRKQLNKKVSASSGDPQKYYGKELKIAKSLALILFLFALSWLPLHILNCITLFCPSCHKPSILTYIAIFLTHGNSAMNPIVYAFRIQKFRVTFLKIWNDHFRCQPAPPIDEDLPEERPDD
- Experiment summary: Binding affinity for human adenosine A1 receptor by displacement of [3H]DPCPX
pKi: −log10 of the molar value.
Hi, to clarify the labels: yes (1) covers pKi from 6 upward, no (0) covers anything below 6.

Completed entries (count: 4):
Cn1nc(-c2ccc(N=[N+]=[N-])cc2)nc1-c1cccc(CN2CC=CC2)c1 | no (0)
COc1cccc(-c2n[nH]c(Cc3cccc(Br)c3)n2)c1 | yes (1)
c1cc(CN2CCCC2)cc(-c2n[nH]c(-c3ccc4c(c3)OCCO4)n2)c1 | no (0)
COc1cccc(-c2nc(Cc3ccc(C)c(C)c3)n[nH]2)c1 | no (0)

Now for another entry.
Task: Is pKi for `COc1cccc(-c2nnc(-c3ccc(Cl)c(Cl)c3)[nH]2)c1` at or above 6?
Result: no (0)
